# composite z-score listing for each entry below
# TARGET_OR_TEST_SYSTEM: Torsin-1A (Homo sapiens) (UniProt O14656)
# Sequence (O14656 whole entry, looked up): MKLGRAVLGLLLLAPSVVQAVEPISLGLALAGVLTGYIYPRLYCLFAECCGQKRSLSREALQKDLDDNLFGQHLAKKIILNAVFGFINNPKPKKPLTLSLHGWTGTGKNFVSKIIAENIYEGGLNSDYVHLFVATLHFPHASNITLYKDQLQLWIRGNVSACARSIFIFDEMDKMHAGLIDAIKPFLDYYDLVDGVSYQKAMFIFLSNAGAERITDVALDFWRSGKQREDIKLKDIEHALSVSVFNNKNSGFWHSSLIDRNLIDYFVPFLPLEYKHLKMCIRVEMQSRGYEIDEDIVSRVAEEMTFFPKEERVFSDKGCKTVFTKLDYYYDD
# ASSAY_INFO: torsin A binders from cell lysate, primary screen, small-molecule microarray, wild-type, 635/667 nm (AID 1149)
# RUN_PARAMETERS: COS7 hTOR1A-WT lysate, 635 nm fluorescence, higher = more signal

{"COMPOUND": "[N-]=[N+]=NCc1ccccc1[C@@H]1OC(c2ccc(OCCCO)cc2)=N[C@]1(Cc1ccccc1)C(=O)N1CCOCC1", "composite z-score": 3.2}
{"COMPOUND": "CCOC(=O)[C@H](CC(C)C)NC(=O)CCC1CC(OC(=O)NCc2cccc3ccccc23)CC2(CCCC(COC(=O)NCCN3CCOCC3)O2)O1 (stereo not given in full)", "composite z-score": 0.0423}
{"COMPOUND": "C[C@H](c1ccccc1)N1C(=O)[C@H]2[C@H]3[C@H](O)[C@H](O)CC(=O)[C@@H]3CC[C@H]2C1=O", "composite z-score": 0.458}
{"COMPOUND": "CC(C)=CCCC(C)=CCON=C1[C@H]2CCn3c(=O)n(Cc4cc5c(cc4Cl)OCO5)c(=O)n3[C@H]2[C@H](O)[C@@H]2O[C@H]12", "composite z-score": 1.62}
{"COMPOUND": "COC(=O)[C@H](C)NC(=O)CCC1CC(OC(=O)NCc2cccc3ccccc23)CC2(CCCC(COC(=O)NCCc3ccc(Cl)cc3)O2)O1 (stereo not given in full)", "composite z-score": 0.405}
